Hey, just so you know, these numbers are from paper PMC5046105.

Target: pWT PDZ2 K392M (human) (UniProt Q12959)
Sequence (Q12959 311-407, change not shown): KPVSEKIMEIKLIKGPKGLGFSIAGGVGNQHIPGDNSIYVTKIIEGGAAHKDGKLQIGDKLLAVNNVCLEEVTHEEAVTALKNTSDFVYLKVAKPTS
Assay: stopped-flow spectroscopy
Ends that are not written are not given here.
Readout: koff (s⁻¹)

Solved entries (count: 3):
# Binder, koff (s⁻¹)
rows = [
    ("Ac-NSKETVV [NSKETVV peptide (C-terminus of E3 ubiquitin-protein ligase MARCH3)]", 7.7),
    ("Ac-VSKETPL [VSKETPL peptide (C-terminus of mitogen-activated protein kinase 12, p38γ)]", 150),
    ("Ac-KRKETLV [KRKETLV peptide (C-terminus of neuroepithelial cell-transforming gene 1 protein, Net1)]", 3.4),
]

[a] Ac-RSISTDV [RSISTDV peptide (C-terminus of protein FAM163B)]
[b] Ac-YRRESAI [YRRESAI peptide (C-terminus of inward rectifier potassium channel 4, Kir2.3)]
Ask: Field: entry with larger koff (options a / b ). Pick one and reply with its label.
Reply: b
(b: 105 s⁻¹, a: 31 s⁻¹)
